# TARGET_UNDER_TEST: MAGI2_6, Q86UL8
# Sequence (Q86UL8 1141-1229): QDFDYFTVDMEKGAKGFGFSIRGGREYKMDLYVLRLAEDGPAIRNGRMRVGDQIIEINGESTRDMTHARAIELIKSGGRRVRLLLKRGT
# MEASUREMENT_PROTOCOL: holdup assay
# Design: key: below the threshold = too weak to quantify, mostly under pKd 3.1 to 4
# ASSAY_CONDITIONS: plain residues with an end cap or a label only (N-terminal biotin on a linker: ado-ado)
PARAMETER: pKd

1. NTANRRTTPV [CACNG2, Q9Y698]    3.53
2. GTGYDRKDYV [CLDN3, O15551]    3.52
3. PYSESDDDWC [CACNA1A, O00555]    4.17
4. AAVENKVTDL [PLXNB1, O43157]    4.99
5. APIAGFSSFV [SDK2, Q58EX2]    4.13
6. SPDRDRESIV [SCN5A, Q14524]    3.67
7. DGVNEKVSCV [HTR2A, P28223]    4.47
8. DPAESMESLV [PTPRG, P23470]    4.16
9. PPGKHLVTEV [KCNA7, Q96RP8]    4.51
10. SFISKKEWYV [NECTIN1, Q15223]    3.56
11. REEPDHSTEV [CCRL2, O00421]    4.71
12. ELSATVTTDC [TRIP6, Q15654]    4.24
13. EDGESWEYQI [TRPV6, Q9H1D0]    3.55
14. EPQYQPGENL [SRC, P12931]    3.84
15. TGLWKHETTV [ADGRA3, Q8IWK6]    3.86
16. SVTSERETNI [SLC16A7, O60669]    3.5
17. EDPRVEVTQF [SLC22A9, Q8IVM8]    3.87
18. SLNANEVEWF [RNF130, Q86XS8]    3.81
